Biological target: N NTD (SARS-CoV-2, UniProt P0DTC9 44-176)
Test: fluorescence polarization
outcome-measure: pKd
Friendly reminder that pKd comes from taking -log10 of the concentration in mol/L.

GET /value?item= UUUCACCUCCCUUUCAGUUU (ssRNA) [20-nt ssRNA] &field=pKd returns 4.80
